Provide the recorded median log2 fold change for the entries that follow.
# SYSTEM_NAME: T1, USP38, Q8NB14
# T1 chain: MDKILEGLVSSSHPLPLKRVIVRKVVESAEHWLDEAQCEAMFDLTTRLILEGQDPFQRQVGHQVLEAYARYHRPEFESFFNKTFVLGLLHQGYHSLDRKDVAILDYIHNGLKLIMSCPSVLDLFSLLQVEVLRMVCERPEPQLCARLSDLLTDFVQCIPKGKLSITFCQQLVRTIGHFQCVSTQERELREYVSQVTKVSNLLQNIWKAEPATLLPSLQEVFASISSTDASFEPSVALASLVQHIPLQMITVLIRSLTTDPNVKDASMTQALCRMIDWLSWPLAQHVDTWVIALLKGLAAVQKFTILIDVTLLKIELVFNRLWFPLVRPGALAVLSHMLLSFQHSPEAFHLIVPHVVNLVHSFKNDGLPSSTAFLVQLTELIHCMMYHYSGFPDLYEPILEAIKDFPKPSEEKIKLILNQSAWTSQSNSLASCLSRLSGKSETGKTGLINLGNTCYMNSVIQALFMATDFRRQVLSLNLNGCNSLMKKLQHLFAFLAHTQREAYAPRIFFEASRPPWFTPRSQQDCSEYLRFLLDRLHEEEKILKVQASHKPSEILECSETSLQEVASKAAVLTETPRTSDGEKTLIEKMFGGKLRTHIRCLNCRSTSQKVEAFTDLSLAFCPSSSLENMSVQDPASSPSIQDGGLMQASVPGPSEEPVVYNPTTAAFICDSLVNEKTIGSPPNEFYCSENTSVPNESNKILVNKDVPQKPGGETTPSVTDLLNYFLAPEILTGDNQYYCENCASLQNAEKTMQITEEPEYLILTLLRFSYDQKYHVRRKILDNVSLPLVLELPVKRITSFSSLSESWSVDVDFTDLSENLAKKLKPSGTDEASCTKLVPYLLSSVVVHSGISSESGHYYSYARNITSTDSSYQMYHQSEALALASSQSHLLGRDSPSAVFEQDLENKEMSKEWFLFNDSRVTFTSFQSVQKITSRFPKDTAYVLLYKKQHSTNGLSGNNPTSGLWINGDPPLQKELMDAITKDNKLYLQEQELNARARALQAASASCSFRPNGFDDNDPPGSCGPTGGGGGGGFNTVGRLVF
# PROCEDURE_SUMMARY: median log2 fold change of GCK-ALFA target abundance (FLAG IP / Myc IP barcode read proportion) (log2 ratio); each designed protein is fused to an ALFA-tag nanobody in HEK293 cells to bring the named protein to FLAG-tagged glucokinase (GCK); Myc marks an untargeted standard; higher = target protein stabilised (more abundant)
# PARTICULARS: target protein: 3xFLAG-MCP-GCK-ALFA reporter; HEK293 landing pad (RPLP)
Form field (numeric): enter value without unit.

What the record says about usp_38_diff_out_5_164_612 (protein) AVEAIRAEFEAAADAALAELKALLAEAKADPSKVEEKLKEAEAVLDELLDLLVEATERVAEEDPSQVEAFLREADARLEELLGIIAEIRELARKVREAKA : median log2 fold change is -0.239

What the record says about usp_38_diff_out_13_93_72 (protein) SAEEEIEKILKEVEEEAEKELEELEKEVAAGRLTVEEVLRRAGELFSYIVKKHQEIEKIAKENGLEALLKEATEKVNELINKVTERVTAMLERVAARQLA : median log2 fold change is -0.469

What the record says about usp_38_diff_out_4_99_568 (protein) MKEEKVKEVKELTERAKELLEKAKEAFELSHEERKKKAEELRKELDELAKRMGAIYFEARDSGDEELIEAVTEEADEFVDAYNEAAEALNLLEHEVLEEE : median log2 fold change is -0.28

What the record says about usp_38_diff_out_18_14_341 (protein) SAELAAATLANLKSLTAEVKEVTARTEKIVEKLKDDPEAALSLLDTRKQAYEGVITYAEEVAKEAKAAGDAELEAAAKELKKAAEEALAKMEKLRAELKA : median log2 fold change is 0.0312
